These data points were gathered from patent US9078871B2.

Measured Emax, listed per entry for reference.
Target: ER-α (Homo sapiens, UniProt P03372)
Construct: endogenous in cells; host or cells: MCF-7
Sequence (P03372 whole entry): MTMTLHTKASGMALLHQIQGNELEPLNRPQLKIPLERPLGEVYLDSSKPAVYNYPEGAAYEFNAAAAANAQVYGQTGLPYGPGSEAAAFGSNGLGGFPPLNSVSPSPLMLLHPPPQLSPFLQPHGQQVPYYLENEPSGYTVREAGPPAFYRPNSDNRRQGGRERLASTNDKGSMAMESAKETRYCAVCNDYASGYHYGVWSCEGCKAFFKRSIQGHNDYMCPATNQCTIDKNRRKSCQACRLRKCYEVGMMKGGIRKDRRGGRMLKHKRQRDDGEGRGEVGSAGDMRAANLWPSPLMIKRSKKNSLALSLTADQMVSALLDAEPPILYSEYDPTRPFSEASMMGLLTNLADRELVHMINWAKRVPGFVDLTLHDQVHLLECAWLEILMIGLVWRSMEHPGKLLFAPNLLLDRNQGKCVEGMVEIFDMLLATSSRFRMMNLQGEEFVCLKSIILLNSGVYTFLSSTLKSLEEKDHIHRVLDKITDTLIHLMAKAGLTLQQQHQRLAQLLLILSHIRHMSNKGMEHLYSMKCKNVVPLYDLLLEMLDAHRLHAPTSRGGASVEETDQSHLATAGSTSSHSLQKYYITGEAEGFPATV
Experiment: ER-α in Cell Western Assay (SP1)
Type: cell-based
Conditions: MCF7; MCF-7 cells, SP1 rabbit monoclonal Ab, 4 or 24 hr post compound addition; read-out: ER In-Cell Western Assay (SP1); Max Response

Compound: CC1=C(c2ccc(F)cc2)C(c2ccc(OC[C@H](C)N3CC4CC4C3)cc2)Oc2ccc(O)cc21 (some centres unmarked) [Example 71]
Emax: 60 to 85%
--
Compound: CC1=C(c2ccccc2)C(c2ccc(OC[C@H](C)N3CC[C@@H](C)C3)cc2)Oc2ccc(O)cc21 (some centres unmarked) [Example 29]
Emax: 60 to 85%
--
Compound: CC1=C(c2ccc(F)cc2)C(c2ccc(OC[C@H](C)N3CCOCC3)cc2)Oc2ccc(O)cc21 (some centres unmarked) [Example 70]
Emax: 60 to 85%
--
Compound: CC1=C(c2ccc(F)cc2)C(c2ccc(OC[C@H](C)N3CC[C@@H](C)C3)cc2)Oc2ccc(O)cc21 (mixture of isomers) [Example 30]
Emax: 60 to 85%
--
Compound: CC1=C(c2cccc(O)c2)C(c2ccc(OCCN3CC[C@H](C)C3)cc2)Oc2ccc(O)cc21 (some centres unmarked) [Example 11]
Emax: 60 to 85%
--
Compound: CC1=C(c2cccc(O)c2)[C@H](c2ccc(OC[C@H](C)N3CC[C@@H](C)C3)cc2)Oc2ccc(O)cc21 (single isomer, unassigned) [Example 2a]
Emax: ≥ 85%
--
Compound: CC1=C(c2cc(O)ccc2F)C(c2ccc(OC[C@H](C)N3CC[C@@H](C)C3)cc2)Oc2ccc(O)cc21 (some centres unmarked) [Example 62]
Emax: ≥ 85%
--
Compound: CC1=C(c2ccc(F)c(F)c2)C(c2ccc(OC[C@H](C)N3CC[C@@H](C)C3)cc2)Oc2ccc(O)cc21 (some centres unmarked) [Example 46]
Emax: 60 to 85%
--
Compound: CC1=C(c2ccc(O)cc2)C(c2ccc(OC[C@H](C)N3CC[C@@H](C)C3)cc2)Oc2ccc(O)cc21 (some centres unmarked) [Example 31]
Emax: ≥ 85%
--
Compound: CC1=C(c2cccc(O)c2)C(c2ccc(OC[C@H](C)N3CC[C@@H](C)C3)cc2F)Oc2ccc(O)cc21 (some centres unmarked) [Example 35]
Emax: ≥ 85%
--
Compound: CC1=C(c2cccc(O)c2)C(c2ccc(OC[C@@H](C)N3CC[C@H](C)C3)cc2)Oc2ccc(O)cc21 (some centres unmarked) [Example 13]
Emax: < 60%
--
Compound: CC1=C(c2ccc(O)cc2C)C(c2ccc(OC[C@H](C)N3CC[C@@H](C)C3)cc2)Oc2ccc(O)cc21 (some centres unmarked) [Example 41]
Emax: 60 to 85%
--
Compound: CC1=C(c2ccc(Br)cc2)C(c2ccc(OC[C@H](C)N3CC[C@@H](C)C3)cc2)Oc2ccc(O)cc21 (some centres unmarked) [Example 54]
Emax: 60 to 85%
--
Compound: CC1=C(c2cccc(O)c2)C(c2ccc(OC[C@@H](C)N3CC[C@@H](C)C3)cc2)Oc2ccc(O)cc21 (some centres unmarked) [Example 10]
Emax: 60 to 85%

###

Target: ER-α (Homo sapiens)
Construct: endogenous in cells; host or cells: MCF-7
Test: ER-α in Cell Western Assay (SP1)
Format: cell-based
Settings: MCF7; MCF-7 cells, SP1 rabbit monoclonal Ab, 4 or 24 hr post compound addition; read-out: ER In-Cell Western Assay (SP1); Max Response
Endpoint Label: Emax

Molecule: CC1=C(c2cccc(O)c2)C(c2ccc(OCCN3CCC(C)(C)C3)cc2)Oc2ccc(O)cc21 (stereo not shown)
Endpoint Label: Emax
Meas Value: 60 to 85%

Molecule: CC1=C(c2cccc(O)c2)C(c2ccc(OC[C@H](C)N3CC[C@@H](C)C3)cc2)Oc2ccc(O)c(F)c21 (stereo partly shown)
Endpoint Label: Emax
Meas Value: ≥ 85%

Molecule: CC1=C(c2cccc(O)c2)C(c2ccc(OC[C@H](C)N3CC[C@@H](F)C3)cc2)Oc2ccc(O)cc21 (stereo partly shown)
Endpoint Label: Emax
Meas Value: ≥ 85%

Molecule: CC1=C(c2ccc(O)cc2)C(c2ccc(OC[C@H](C)N3CC[C@@H](C)C3)cc2)Oc2cc(O)ccc21 (stereo partly shown)
Endpoint Label: Emax
Meas Value: ≥ 85%

Molecule: CC1=C(c2cc(F)c(O)c(F)c2)C(c2ccc(OC[C@H](C)N3CC[C@@H](C)C3)cc2)Oc2ccc(O)cc21 (stereo partly shown)
Endpoint Label: Emax
Meas Value: ≥ 85%

Molecule: CC1=C(c2cccc(O)c2)C(c2ccc(OC[C@H](C)N3CC[C@@H](C)C3)cc2)Oc2cc(O)ccc21 (stereo partly shown)
Endpoint Label: Emax
Meas Value: ≥ 85%

Molecule: CC1=C(c2cccc(O)c2)C(c2ccc(OC[C@H](C)N3C4CCC3CC4)cc2)Oc2ccc(O)cc21 (stereo partly shown)
Endpoint Label: Emax
Meas Value: < 60%

Molecule: CC1=C(c2ccc(F)cc2F)C(c2ccc(OC[C@H](C)N3CC[C@@H](C)C3)cc2)Oc2ccc(O)cc21 (stereo partly shown)
Endpoint Label: Emax
Meas Value: 60 to 85%

Molecule: CC1=C(c2ccc(C)c(O)c2)C(c2ccc(OC[C@H](C)N3CC[C@@H](C)C3)cc2)Oc2ccc(O)cc21 (stereo partly shown)
Endpoint Label: Emax
Meas Value: 60 to 85%

Molecule: CC1=C(c2ccc(F)cc2)[C@H](c2ccc(OC[C@H](C)N3CC[C@@H](C)C3)cc2)Oc2ccc(O)cc21 (single isomer, unassigned) [Example 30a]
Endpoint Label: Emax
Meas Value: 60 to 85%

Molecule: CC1=C(c2cccc(O)c2)C(c2ccc(OC[C@@H](C)N3CCCC3)cc2)Oc2ccc(O)cc21 (stereo partly shown)
Endpoint Label: Emax
Meas Value: < 60%

Molecule: CC1=C(c2ccc(F)cc2)[C@@H](c2ccc(OC[C@H](C)N3CC[C@@H](C)C3)cc2)Oc2ccc(O)cc21 (single isomer, unassigned) [Example 30b]
Endpoint Label: Emax
Meas Value: 60 to 85%

Molecule: CC1=C(c2cccc(O)c2)C(c2ccc(OCCN3CCCCCCC3)cc2)Oc2ccc(O)cc21 (stereo not shown)
Endpoint Label: Emax
Meas Value: < 60%

Molecule: CC1=C(c2ccccc2C)C(c2ccc(OC[C@H](C)N3CC[C@@H](C)C3)cc2)Oc2ccc(O)cc21 (stereo partly shown)
Endpoint Label: Emax
Meas Value: 60 to 85%

Molecule: CC1=C(c2cccc(O)c2)C(c2ccc(OCCn3ccnc3)cc2)Oc2ccc(O)cc21 (stereo not shown)
Endpoint Label: Emax
Meas Value: < 60%

Molecule: CC1=C(c2cccc(O)c2)C(c2ccc(NCCN3CCCC3)cc2)Oc2ccc(O)cc21 (stereo not shown)
Endpoint Label: Emax
Meas Value: 60 to 85%

Molecule: CC1=C(c2cccc(O)c2)C(c2ccc(OCCN3CCC[C@@H](C)C3)cc2)Oc2ccc(O)cc21 (stereo partly shown)
Endpoint Label: Emax
Meas Value: 60 to 85%

Molecule: CC1=C(c2ccc(Cl)cc2)C(c2ccc(OC[C@H](C)N3CC[C@@H](C)C3)cc2)Oc2ccc(O)cc21 (stereo partly shown)
Endpoint Label: Emax
Meas Value: 60 to 85%

Molecule: CNCCOc1ccc(C2Oc3ccc(O)cc3C(C)=C2c2cccc(O)c2)cc1 (stereo not shown)
Endpoint Label: Emax
Meas Value: < 60%

Molecule: CC1=C(c2ccc(F)c(O)c2)C(c2ccc(OC[C@H](C)N3CC[C@@H](C)C3)cc2)Oc2ccc(O)cc21 (stereo partly shown)
Endpoint Label: Emax
Meas Value: ≥ 85%

Molecule: CC1=C(c2cccc(O)c2)C(c2ccc(OCCN3CCCCCC3)cc2)Oc2ccc(O)cc21 (stereo not shown)
Endpoint Label: Emax
Meas Value: 60 to 85%

Molecule: CC1=C(c2cccc(O)c2)C(c2ccc(OCCN3CC[C@@H](C)C3)cc2)Oc2ccc(O)cc21 (stereo partly shown)
Endpoint Label: Emax
Meas Value: ≥ 85%

Molecule: CC1=C(c2cccc(O)c2)C(c2ccc(OC[C@H](C)N3CCC(C)(C)C3)cc2)Oc2ccc(O)cc21 (stereo partly shown)
Endpoint Label: Emax
Meas Value: 60 to 85%

Molecule: CC1=C(c2cccc(O)c2)C(c2ccc(OCCN3CCCC3)cc2F)Oc2ccc(O)cc21 (stereo not shown)
Endpoint Label: Emax
Meas Value: 60 to 85%

Molecule: CC1=C(c2cccc(O)c2)C(c2ccc(OCCN3CCCC3)cc2)Oc2ccc(O)cc21 (stereo not shown)
Endpoint Label: Emax
Meas Value: 60 to 85%
